This collection of values is drawn from PubChem BioAssay AID2113.

measuredTarget: Lysosomal alpha-glucosidase (Homo sapiens) (UniProt P10253)
protocolDetails: Confirmation of Inhibitors and Activators of Human alpha-Glucosidase From Spleen Homogenate
setupConditions: alpha-glucosidase enzyme activity; series mostly up to 60.5 µM
Results filed as inconclusive are left out. Activity calls are given as the source filed them. Calls come from the whole dose curve; as a rule, active = well fitted curve in either direction with a large enough effect; inconclusive = small, poorly fitted or top-dose-only effect; inactive = no such curve, though single readings can be large or run the other way.
Select the matching outcome among active, inactive

Check out these entries, answers already filled in.
| compound | measuredTarget | labelValue |
| --- | --- | --- |
| COc1ccc(C(=O)N2CCN(c3ccc([N+](=O)[O-])c(NCCc4ccc(OC)c(OC)c4)c3)CC2)cc1 | Lysosomal alpha-glucosidase (Homo sapiens) (UniProt P10253) | inactive |
| COc1ccc(/C=C/c2nnc(NC(=O)CSc3ccc(Cl)cc3)s2)cc1 | Lysosomal alpha-glucosidase (Homo sapiens) (UniProt P10253) | inactive |
| CCC(C)N1CNc2c(c(=O)[nH]c(=S)n2-c2cccc(C)c2)C1 (stereo unspecified) | Lysosomal alpha-glucosidase (Homo sapiens) (UniProt P10253) | inactive |

Q: For this compound, state the assay outcome: O=C(COC(=O)c1ccccc1Br)NCCc1ccc(F)cc1
A: inactive

Q: What do we get for CCC(C)Nc1nc(-c2cccc(OC)c2O)nc2ccccc12 (stereo unspecified) ?
A: inactive

Q: What do we get for CCCN1CNc2c(c(=O)[nH]c(=S)n2CCC(C)C)C1 ?
A: inactive

Q: What do we get for CNc1ncnc2c1ncn2[C@H]1C[C@H](OP(=O)(O)O)[C@@H](COP(=O)(O)O)O1 ?
A: inactive

Q: What do we get for COc1cc(=O)[nH]c(=O)n1CC(=O)c1ccccc1 ?
A: inactive

Q: What do we get for COc1ccc(CCn2cc(C#N)c(=O)[nH]c2=O)cc1OC ?
A: inactive

Q: What do we get for Cc1nc(SCC(=O)N2CCN(c3ccccc3)CC2)c2oc3ccccc3c2n1 ?
A: inactive

Q: What do we get for CCCN1CNc2c(c(=O)[nH]c(=S)n2Cc2ccc(OC)c(OC)c2)C1 ?
A: active
